The reported measurements were obtained from ChEMBL document CHEMBL5360562.

Here, each record is paired with measured IC50 at 24 h data.
test: Antiproliferative against human HepG2 cells assessed as reduction in cell viability incubated for 24 hrs by XTT assay; assay type: toxicity, cell-based
RECORDED_METRIC: IC50 at 24 h (µg/mL)

Nc1nc(-c2ccc(NC(=O)c3ccc(Cl)c(Cl)c3)cc2F)c[nH]1 : 6.8
Cl.Cl.Nc1nc(-c2ccc(NC(=O)Nc3ccc(-c4c[nH]c(N)n4)c(F)c3)cc2F)c[nH]1 : 127
Nc1nc(-c2cccc(NC(=O)Nc3cccc(-c4c[nH]c(N)n4)c3)c2)c[nH]1 : 380
Nc1nc(-c2ccc(NC(=O)Nc3cc(Br)cc(Br)c3)cc2)c[nH]1 : 23.2
Cl.Cl.Nc1nc(-c2ccc(NC(=O)Nc3cccc(-c4c[nH]c(N)n4)c3F)cc2F)c[nH]1 : 208
